Target: GCN5L2 (Homo sapiens, UniProt Q92830)
Construct: made in house
Sequence (Q92830 728-832 limits assumed): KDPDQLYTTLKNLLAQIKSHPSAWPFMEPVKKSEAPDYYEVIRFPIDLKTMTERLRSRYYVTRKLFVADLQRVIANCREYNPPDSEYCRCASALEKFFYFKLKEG
Test: Differential scanning fluorimetry (DSF), GCN5 (GCN5L2) Brd
Type: binding
Conditions: compound 10 μM; read-out: GCN5L2 ΔTm (°C) (DSF)
Description: Protein Expression and Purification Human bromodomains were cloned, expressed and purified as previously described.[1] Differential Scanning Fluorimetry (DSF) Thermal melting points were recorded using an Mx3005p Real Time PCR Machine (Stratagene). Subject proteins were buffered in 10 mM HEPES at pH 7.5, 500 mM NaCl and assayed in a 96-well […] plate at a final concentration of 2 μM in 20 μL volume. […] fluorescence readings were taken at each interval. Data was analysed as previously described.[2] […]
Please enter true where ΔTm at 10 µM is greater than or equal to 1 °C, and false where it is lower.

Threshold query (ΔTm at 10 µM >= 1 °C) on Cc1nnc2c3ccccc3c(N[C@@H](C)CN(C)C)nn12 [(S)‐11]
true

Threshold query (ΔTm at 10 µM >= 1 °C) on Cc1nnc2c3ccccc3c(NC(C)CN(C)C)nn12 (stereo not shown)
true

Threshold query (ΔTm at 10 µM >= 1 °C) on `Cc1nnc2c3ccccc3c(N[C@@H](C)[C@H](O)c3ccccc3)nn12`
false

Threshold query (ΔTm at 10 µM >= 1 °C) on `CN(C)[C@H]1CCC[C@@H]1Nc1nn2c(C(F)(F)F)nnc2c2ccccc12`
false

Threshold query (ΔTm at 10 µM >= 1 °C) on Cc1nnc2c3ccccc3c(NC(CC(C)C)CN(C)C)nn12 (stereo not shown)
true

Threshold query (ΔTm at 10 µM >= 1 °C) on `CN(C)[C@H]1CCCC[C@@H]1Nc1nn2c(C(F)(F)F)nnc2c2ccccc12`
false

Threshold query (ΔTm at 10 µM >= 1 °C) on Cc1nnc2c3ccccc3c(N3CCCC(N(C)C)C3)nn12 (stereo not shown)
false

Threshold query (ΔTm at 10 µM >= 1 °C) on `Cc1nnc2c3ccccc3c(Cl)nn12`
false

Threshold query (ΔTm at 10 µM >= 1 °C) on Cc1nnc2c3ccccc3c(N[C@@H](C)[C@H](c3ccc(C(F)(F)F)cc3)N(C)C)nn12 (relative stereo)
true

Threshold query (ΔTm at 10 µM >= 1 °C) on `Cc1nnc2c3ccccc3c(N[C@@H](C)[C@H](c3ccc(Cl)cc3)N(C)C)nn12`
true

Threshold query (ΔTm at 10 µM >= 1 °C) on `Cc1nnc2c3ccccc3c(NCCN3CCN(C)CC3)nn12`
false

Threshold query (ΔTm at 10 µM >= 1 °C) on Cc1nnc2c3ccccc3c(NCC3COCCN3C)nn12 (stereo not shown)
false

Threshold query (ΔTm at 10 µM >= 1 °C) on Cc1nnc2c3ccccc3c(NC3CCCN(C)C3=O)nn12 (stereo not shown)
false

Threshold query (ΔTm at 10 µM >= 1 °C) on CCN1CCCCC1CNc1nn2c(C)nnc2c2ccccc12 (stereo not shown)
false

Threshold query (ΔTm at 10 µM >= 1 °C) on Cc1nnc2c3ccccc3c(N[C@@H](C)[C@H](c3ccc(F)cc3)N(C)C)nn12 (relative stereo)
true

Threshold query (ΔTm at 10 µM >= 1 °C) on CCN1CCCC1CNc1nn2c(C(F)(F)F)nnc2c2ccccc12 (stereo not shown)
false

Threshold query (ΔTm at 10 µM >= 1 °C) on Cc1nnc2c3ccccc3c(NC(CO)c3ccccc3)nn12 (stereo not shown)
false

Threshold query (ΔTm at 10 µM >= 1 °C) on `Cc1nnc2c3ccccc3c(NCCCCN(C)C)nn12`
false
